Protocol description: Physicochemical input parameters
Protocol conditions: pKa1 (base)
Experimental readout: pKa
Numbers only.

Exercise: Record request: pKa value, item `CCc1nc2c(C)cc(N3CCN(CC(=O)N4CC(O)C4)CC3)cn2c1N(C)c1nc(-c2ccc(F)cc2)c(C#N)s1`
Solution: 4.99

###

Experimental target: CYP2C9 (Homo sapiens)
Sequence (P11712 whole entry): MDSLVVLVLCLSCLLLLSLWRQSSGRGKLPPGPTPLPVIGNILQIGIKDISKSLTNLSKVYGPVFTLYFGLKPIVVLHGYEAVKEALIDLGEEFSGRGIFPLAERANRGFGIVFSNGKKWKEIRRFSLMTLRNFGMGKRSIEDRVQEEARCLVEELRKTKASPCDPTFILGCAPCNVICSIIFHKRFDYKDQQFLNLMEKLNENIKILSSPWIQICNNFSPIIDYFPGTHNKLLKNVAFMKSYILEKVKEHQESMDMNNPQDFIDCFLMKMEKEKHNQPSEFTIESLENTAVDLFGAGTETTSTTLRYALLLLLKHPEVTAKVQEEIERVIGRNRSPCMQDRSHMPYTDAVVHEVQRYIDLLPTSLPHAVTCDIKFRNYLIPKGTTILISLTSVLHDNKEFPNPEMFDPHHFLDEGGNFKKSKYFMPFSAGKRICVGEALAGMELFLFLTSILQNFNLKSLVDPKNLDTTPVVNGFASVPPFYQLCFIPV
Protocol description: CYP2C9 inhibition
Type: in vitro ADME
Protocol conditions: human
Experimental readout: fraction unbound

Exercise: For the record CCc1nc2c(C)cc(N3CCN(CC(=O)N4CC(O)C4)CC3)cn2c1N(C)c1nc(-c2ccc(F)cc2)c(C#N)s1 [Ziritaxestat, ziritaxestat] , what value of fraction unbound is listed for CYP2C9 (Homo sapiens)?
Solution: 0.24

###

Protocol description: Physicochemical input parameters
Protocol conditions: FaSSIF
Experimental readout: solubility (mg/mL)
One number for each entry, in mg/mL.

Exercise: Record request: solubility value, item `CCc1nc2c(C)cc(N3CCN(CC(=O)N4CC(O)C4)CC3)cn2c1N(C)c1nc(-c2ccc(F)cc2)c(C#N)s1`
Solution: 0.54

###

Protocol description: Apparent permeability in Caco-2 cells
Assay type: in vitro ADME
Protocol conditions: human
Experimental readout: Papp (×10⁻⁶ cm/s)
Numbers only, in ×10⁻⁶ cm/s.

Exercise: Record request: Papp value, item CCc1nc2c(C)cc(N3CCN(CC(=O)N4CC(O)C4)CC3)cn2c1N(C)c1nc(-c2ccc(F)cc2)c(C#N)s1 [Ziritaxestat, ziritaxestat]
Solution: 47

###

Protocol description: PBPK model
Protocol conditions: human, oral, 600 mg
Experimental readout: Papp

Exercise: Record request: Papp value, item `CCc1nc2c(C)cc(N3CCN(CC(=O)N4CC(O)C4)CC3)cn2c1N(C)c1nc(-c2ccc(F)cc2)c(C#N)s1`
Solution: 120 ×10⁻⁶ cm/s

Reference source for all entries: paper PMC10651654
